experimental-setup: 298.15 K; 101.33 kPa; Liquid
observed-property: mass density (kg/m3)

C1COCCO1 [1,4-dioxane] : 1027.82
CCCCOC(C)=O [butyl ethanoate] : 876.38
CN(C)C=O [dimethylformamide] : 943.81
CCCCCOC(C)=O [pentyl ethanoate] : 870.17
CCCCCCOC(C)=O [hexyl ethanoate] : 868.52

* * *

experimental-setup: 298.15 K, Ring tensiometer
observed-property: surface tension liquid-gas (mN/m)

The examples below pair each entry with its known result.
C1COCCO1 : 32.71
CCCCOC(C)=O [butyl ethanoate] : 24.85
CCCCCCOC(C)=O [hexyl ethanoate] : 26.39

(a) CN(C)C=O [dimethylformamide]
(b) CCCCCOC(C)=O [pentyl ethanoate]
Pick one: a or b . Which has the bigger surface tension liquid-gas number? Kindly give the label for the entry you pick. a
